Test system: ATP;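 further: ATP exposure 15 min at 22 °C before imaging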
Experiment: switch fluorescence ratio, 500 uM ATP over buffer (Cy3 cluster intensity, sum of 5 cycles each) (fold (ratio)); higher = stronger signal-on switching upon ATP binding; sequences stand for … in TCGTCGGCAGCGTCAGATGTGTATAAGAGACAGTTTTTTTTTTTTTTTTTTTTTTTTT…TC
Conditions: aptamer strand: ATP DNA aptamer (quencher-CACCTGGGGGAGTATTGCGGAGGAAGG + anchor), 100 nM annealed; ATP concentration: 500 uM
measured quantity: switch fluorescence ratio
Just the number, please, no unit attached.

Some sequences with known switch fluorescence ratio results, for comparison:
# sequence string, assayed system, switch fluorescence ratio
data = [
    ("AGTATGGGGT", "ATP", 0.996),
    ("AGAAATTTTT", "ATP", 0.998),
    ("CGTTGTAAGG", "ATP", 1.01),
    ("AGGGTGTGCT", "ATP", 1.01),
]

--- query ---
// query switch fluorescence ratio value for entry GGGTCTCGTT 1.01

====

Reported switch fluorescence ratio values are given for each entry in this list.
Test system: ATP;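 further: ATP exposure 15 min at 22 °C before imaging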
Experiment: switch fluorescence ratio, 500 uM ATP over buffer (Cy3 cluster intensity, sum of 5 cycles each) (fold (ratio)); higher = stronger signal-on switching upon ATP binding; sequences stand for … in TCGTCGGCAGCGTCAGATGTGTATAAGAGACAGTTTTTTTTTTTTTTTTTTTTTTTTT…TC
Conditions: aptamer strand: ATP DNA aptamer (quencher-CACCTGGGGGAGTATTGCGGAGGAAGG + anchor), 100 nM annealed; ATP concentration: 500 uM

Some sequences with known switch fluorescence ratio results, for comparison:
# sequence string, assayed system, switch fluorescence ratio
rows = [
    ("GCTCTGTCGG", "ATP", 1.02),
    ("TCGGGTAGTG", "ATP", 1.01),
    ("CTTGAGGGGA", "ATP", 0.983),
    ("TAATAGTAAT", "ATP", 1.02),
    ("GTGGCAACGC", "ATP", 0.98),
    ("AAATCGGGGG", "ATP", 1.05),
]

// query switch fluorescence ratio value for entry TTCGACTAGC 1.03

Now consider TCTGTGACTA and answer again. 1.06

Now consider GAGTTGGTTT and answer again. 1

Now consider AAGCCGCTAG and answer again. 1.11

Now consider CAGTGAGGTA and answer again. 0.984

Now consider GTTTGTGGGC and answer again. 1.01

Now consider TCTGAAATTC and answer again. 1.15

Now consider GAGAGTGGGG and answer again. 0.985

====

Reported switch fluorescence ratio values are given for each entry in this list.
Test system: ATP;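 further: ATP exposure 15 min at 22 °C before imaging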
Test: switch fluorescence ratio, 500 uM ATP over buffer (Cy3 cluster intensity, sum of 5 cycles each) (fold (ratio)); higher = stronger signal-on switching upon ATP binding; sequences stand for … in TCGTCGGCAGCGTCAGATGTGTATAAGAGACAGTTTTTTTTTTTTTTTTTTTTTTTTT…TC
Conditions: aptamer strand: ATP DNA aptamer (quencher-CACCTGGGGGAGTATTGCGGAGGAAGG + anchor), 100 nM annealed; ATP concentration: 500 uM
Just the number, please, no unit attached.

// query switch fluorescence ratio value for entry ACTGACCCCC 1.58

====

Reported switch fluorescence ratio values are given for each entry in this list.
System: ATP;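 further: ATP exposure 15 min at 22 °C before imaging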
Experiment: switch fluorescence ratio, 500 uM ATP over buffer (Cy3 cluster intensity, sum of 5 cycles each) (fold (ratio)); higher = stronger signal-on switching upon ATP binding; sequences stand for … in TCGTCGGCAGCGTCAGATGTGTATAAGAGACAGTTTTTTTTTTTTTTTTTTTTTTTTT…TC
Conditions: aptamer strand: ATP DNA aptamer (quencher-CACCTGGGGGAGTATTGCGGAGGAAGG + anchor), 100 nM annealed; ATP concentration: 500 uM
Just the number, please, no unit attached.

Some sequences with known switch fluorescence ratio results, for comparison:
# sequence string, assayed system, switch fluorescence ratio
measured = [
    ("AATTGGGCGA", "ATP", 0.989),
    ("AGGCTGGCTA", "ATP", 1),
    ("GACATTTTTT", "ATP", 0.978),
]

// query switch fluorescence ratio value for entry ATGTTGTAAG 1.01

====

Test system: ATP;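 further: ATP exposure 15 min at 22 °C before imaging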
Assay: switch fluorescence ratio, 500 uM ATP over buffer (Cy3 cluster intensity, sum of 5 cycles each) (fold (ratio)); higher = stronger signal-on switching upon ATP binding; sequences stand for … in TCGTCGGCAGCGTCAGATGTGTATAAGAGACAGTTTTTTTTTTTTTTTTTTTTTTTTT…TC
Conditions: aptamer strand: ATP DNA aptamer (quencher-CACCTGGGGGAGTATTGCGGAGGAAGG + anchor), 100 nM annealed; ATP concentration: 500 uM
Reported switch fluorescence ratio values are given for each entry in this list.
Just the number, please, no unit attached.

Some sequences with known switch fluorescence ratio results, for comparison:
# sequence string, measured quantity, data value
data = [
    ("GGGGACTCTT", "switch fluorescence ratio", 0.977),
    ("CGTTATAAAT", "switch fluorescence ratio", 0.996),
    ("TTGTGTATCA", "switch fluorescence ratio", 0.993),
    ("AATTGGAGGG", "switch fluorescence ratio", 1),
    ("GATGTCGTAC", "switch fluorescence ratio", 0.99),
    ("ATTTGTTGCG", "switch fluorescence ratio", 0.999),
]

Give the reported switch fluorescence ratio for ATGCCTCGGG (system: ATP). 1.02

Now consider ATCTAACGGC and answer again. 1.01

Now consider CTCCTGTTTT and answer again. 1.02

Now consider TATAAGGGTT and answer again. 1.01

Now consider GGGTACTGAT and answer again. 1.01

Now consider CCGCGTTATG and answer again. 1.67

Now consider AAATTAGAGG and answer again. 1

====

Tested on: ATP;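 further: ATP exposure 15 min at 22 °C before imaging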
Experiment: switch fluorescence ratio, 500 uM ATP over buffer (Cy3 cluster intensity, sum of 5 cycles each) (fold (ratio)); higher = stronger signal-on switching upon ATP binding; sequences stand for … in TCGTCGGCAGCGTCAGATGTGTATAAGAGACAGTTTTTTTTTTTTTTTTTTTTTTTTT…TC
Conditions: aptamer strand: ATP DNA aptamer (quencher-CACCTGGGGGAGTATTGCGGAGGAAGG + anchor), 100 nM annealed; ATP concentration: 500 uM
measured quantity: switch fluorescence ratio
Just the number, please, no unit attached.

Some sequences with known switch fluorescence ratio results, for comparison:
# sequence string, assayed system, switch fluorescence ratio
measured = [
    ("ACGGGCAATG", "ATP", 1.32),
    ("GAAACCTATT", "ATP", 1.01),
    ("TTTAATGA", "ATP", 0.976),
    ("AATATTTGAG", "ATP", 0.998),
    ("AGCCCGGAAA", "ATP", 1.02),
]

// query switch fluorescence ratio value for entry AGGCGTTGAG 0.976

Now consider CGGGATTAGC and answer again. 0.983

Now consider TGGATATGGG and answer again. 1.01

Now consider GCGTGCTGAA and answer again. 1.04

Now consider TTGTTAATTT and answer again. 1.02

Now consider TAAAGCTTCG and answer again. 1.27

Now consider AAATGGGAAA and answer again. 1.06

Now consider CGTGTTGGGG and answer again. 0.971

====

Tested on: ATP;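 further: ATP exposure 15 min at 22 °C before imaging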
Test: switch fluorescence ratio, 500 uM ATP over buffer (Cy3 cluster intensity, sum of 5 cycles each) (fold (ratio)); higher = stronger signal-on switching upon ATP binding; sequences stand for … in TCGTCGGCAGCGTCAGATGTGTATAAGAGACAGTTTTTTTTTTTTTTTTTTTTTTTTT…TC
Details: aptamer strand: ATP DNA aptamer (quencher-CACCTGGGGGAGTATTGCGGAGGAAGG + anchor), 100 nM annealed; ATP concentration: 500 uM
Reported switch fluorescence ratio values are given for each entry in this list.
Just the number, please, no unit attached.

# sequence string, assayed system, switch fluorescence ratio
measured = [
    ("ACGAGTTCCT", "ATP", 0.989),
    ("TTTAATCTGG", "ATP", 0.968),
    ("CAAGTAAAAG", "ATP", 1.01),
]

// query switch fluorescence ratio value for entry TTCGTCTTTT 0.98

====

System: ATP;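 further: ATP exposure 15 min at 22 °C before imaging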
Assay: switch fluorescence ratio, 500 uM ATP over buffer (Cy3 cluster intensity, sum of 5 cycles each) (fold (ratio)); higher = stronger signal-on switching upon ATP binding; sequences stand for … in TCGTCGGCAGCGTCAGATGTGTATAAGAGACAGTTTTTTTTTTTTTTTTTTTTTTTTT…TC
Settings: aptamer strand: ATP DNA aptamer (quencher-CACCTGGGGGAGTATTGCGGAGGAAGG + anchor), 100 nM annealed; ATP concentration: 500 uM
Reported switch fluorescence ratio values are given for each entry in this list.

Some sequences with known switch fluorescence ratio results, for comparison:
# sequence string, data value
rows = [
    ("AGTATATCGC", 1),
    ("CCCTGGGTCT", 1.03),
    ("GAGCTGGGTG", 1.09),
    ("GATTCCGAGC", 1.44),
]

// query switch fluorescence ratio value for entry GTGGTGGGGC 0.955

Now consider CGTCGAGTGC and answer again. 0.962

Now consider CCATGGGGGA and answer again. 1.01

Now consider TTTGGAGAAT and answer again. 1.02

Now consider ACTTGGTACT and answer again. 1.02

Now consider TTTTGAGGG and answer again. 1.07
